- experimental target: ALP in normal human articular chondrocytes (NHACs)
- protocol summary: Alkaline Phosphatase (ALP) activity assay (staining and quantitation) in NHACs, prevention of chondrocyte hypertrophy
- Type: cell-based
- measurement context: human IL-1 beta 10 ng/mL, 12 days, Fast Blue RR staining, high content imaging, read-out: ALP in NHAC IC50
pIC50: −log10 of the molar value.
assay metric: pIC50

{"compound": "Cn1cc([C@H]2[C@H]3O[C@H](C[C@@H]3O)[C@@H]2C(=O)Nc2cccc(C(F)(F)F)c2)c(C(F)(F)F)n1 (single isomer, unassigned) [Example 32b]", "experimental target": "ALP in normal human articular chondrocytes (NHACs)", "value": 4.80}
{"compound": "Cn1nc(C(F)(F)F)cc1[C@H]1[C@H]2O[C@H](C[C@@H]2O)[C@@H]1C(=O)Nc1cc(C(F)(F)F)ccc1C#N (single isomer, unassigned) [Example 72a]", "experimental target": "ALP in normal human articular chondrocytes (NHACs)", "value": 5.51}
{"compound": "COc1cc([C@@H]2[C@@H]3O[C@@H](C[C@H]3O)[C@H]2C(=O)Nc2cc(C(F)(F)F)ccc2C#N)ccn1 (single isomer, unassigned) [Example 78a]", "experimental target": "ALP in normal human articular chondrocytes (NHACs)", "value": 5.96}
{"compound": "Cn1cc([C@H]2[C@H]3O[C@H](C[C@@H]3O)[C@@H]2C(=O)Nc2cccc(C(F)(F)F)c2)c(C(F)(F)F)n1 (single isomer, unassigned) [Example 32a]", "experimental target": "ALP in normal human articular chondrocytes (NHACs)", "value": 5.18}

----------
- Tested on: ALP in normal human articular chondrocytes (NHACs)
- protocol summary: Alkaline Phosphatase (ALP) activity assay (staining and quantitation) in NHACs, prevention of chondrocyte hypertrophy
- Assay type: cell-based
- measurement context: Chondrocyte, 288 h, human IL-1 beta 10 ng/mL, 12 days, Fast Blue RR staining, high content imaging, read-out: ALP in NHAC IC50
pIC50: −log10 of the molar value.
List of pIC50 values.
assay metric: pIC50

{"compound": "Cn1nc(C(F)(F)F)cc1[C@H]1[C@H]2O[C@H](C[C@@H]2O)[C@@H]1C(=O)Nc1ccc(C(F)(F)F)c(Cl)c1 (racemic)", "qualifying sign": "=", "value": 5.15}
{"compound": "O=C(Nc1cccc(C(F)(F)F)c1F)[C@@H]1[C@@H](c2cccc(C(F)(F)F)c2)[C@H]2O[C@@H]1C[C@@H]2O (racemic)", "qualifying sign": "=", "value": 5.15}
{"compound": "Cc1c(NC(=O)[C@@H]2[C@@H](c3cccc(C(F)(F)F)c3)[C@H]3O[C@@H]2C[C@@H]3O)cccc1C(F)(F)F (racemic)", "qualifying sign": "<", "value": 4.52}
{"compound": "O=C(Nc1cc(C(F)(F)F)cc(C2CC2)n1)[C@@H]1[C@@H](c2cccc(C(F)(F)F)c2)[C@H]2O[C@@H]1C[C@@H]2O (racemic)", "qualifying sign": "<", "value": 4.52}
{"compound": "Cn1cc([C@H]2[C@H]3O[C@H](C[C@@H]3O)[C@@H]2C(=O)Nc2cc(C(F)(F)F)cc(C3CC3)n2)c(C(F)(F)F)n1 (racemic)", "qualifying sign": "=", "value": 5.00}
{"compound": "Cc1cc(NC(=O)[C@@H]2[C@@H](c3cn(C)nc3C(F)(F)F)[C@H]3O[C@@H]2C[C@@H]3O)cc(C(F)(F)F)c1 (racemic)", "qualifying sign": "=", "value": 5.14}
{"compound": "Cc1cc(NC(=O)[C@@H]2[C@@H](c3ccnc(C(F)(F)F)c3)[C@H]3O[C@@H]2C[C@@H]3O)cc(C(F)(F)F)c1 (racemic)", "qualifying sign": "=", "value": 4.70}
{"compound": "N#Cc1cc(NC(=O)[C@@H]2[C@@H](c3cccc(C(F)(F)F)c3)[C@H]3O[C@@H]2C[C@@H]3O)cc(C(F)(F)F)c1 (racemic)", "qualifying sign": "=", "value": 5.26}
{"compound": "Cn1cc([C@H]2[C@H]3O[C@H](C[C@@H]3O)[C@@H]2C(=O)Nc2cccc(C(F)(F)F)c2F)c(C(F)(F)F)n1 (racemic)", "qualifying sign": "<", "value": 4.52}
{"compound": "Cn1nc(C(F)(F)F)cc1[C@H]1[C@H]2O[C@H](C[C@@H]2O)[C@@H]1C(=O)Nc1cccc(C(F)(F)F)c1 (racemic)", "qualifying sign": "=", "value": 4.68}
{"compound": "Cc1ccc(C(F)(F)F)cc1NC(=O)[C@@H]1[C@@H](c2cccc(C(F)(F)F)c2)[C@H]2O[C@@H]1C[C@@H]2O (racemic)", "qualifying sign": "=", "value": 4.89}
{"compound": "N#Cc1ccc(C(F)(F)F)cc1NC(=O)[C@@H]1[C@@H](c2cccc(C(F)(F)F)c2)[C@H]2O[C@@H]1C[C@@H]2O (racemic)", "qualifying sign": "=", "value": 7.06}

----------
List of IC50 values.
- System: ALP in normal human articular chondrocytes (NHACs)
- protocol summary: Alkaline Phosphatase (ALP) activity assay (staining and quantitation) in NHACs, prevention of chondrocyte hypertrophy
- Assay type: cell-based
- measurement context: Chondrocyte, 288 h, human IL-1 beta 10 ng/mL, 12 days, Fast Blue RR staining, high content imaging, read-out: ALP in NHAC IC50

{"compound": "CCOc1cc(C(F)(F)F)cc(NC(=O)[C@@H]2[C@@H](c3cccc(C(F)(F)F)c3)[C@H]3O[C@@H]2C[C@@H]3O)n1 (racemic) [Example 9]", "experimental target": "ALP in normal human articular chondrocytes (NHACs)", "u": "µM", "qualifying sign": "=", "IC50": 12}
{"compound": "CC(C)n1cc([C@H]2[C@H]3O[C@H](C[C@@H]3O)[C@@H]2C(=O)Nc2cc(C(F)(F)F)ccn2)c(C(F)(F)F)n1 (racemic) [Example 86]", "experimental target": "ALP in normal human articular chondrocytes (NHACs)", "u": "µM", "qualifying sign": "=", "IC50": 11}
{"compound": "COc1ccc(NC(=O)[C@@H]2[C@@H](c3cn(C)nc3C(F)(F)F)[C@H]3O[C@@H]2C[C@@H]3O)cc1C(F)(F)F (racemic) [Example 31]", "experimental target": "ALP in normal human articular chondrocytes (NHACs)", "u": "µM", "qualifying sign": "=", "IC50": 3.1}
{"compound": "Cc1cc(C(F)(F)F)cc(NC(=O)[C@@H]2[C@@H](c3cccc(C(F)(F)F)c3)[C@H]3O[C@@H]2C[C@@H]3O)n1 (racemic) [Example 8]", "experimental target": "ALP in normal human articular chondrocytes (NHACs)", "u": "µM", "qualifying sign": "=", "IC50": 17}
{"compound": "Cn1cc([C@H]2[C@H]3O[C@H](C[C@@H]3O)[C@@H]2C(=O)Nc2ccc(N3CCOCC3)c(C(F)(F)F)c2)c(C(F)(F)F)n1 (racemic) [Example 37]", "experimental target": "ALP in normal human articular chondrocytes (NHACs)", "u": "µM", "qualifying sign": ">", "IC50": 30}
{"compound": "COc1cc([C@H]2[C@H]3O[C@H](C[C@@H]3O)[C@@H]2C(=O)Nc2cccc(C(F)(F)F)c2)ccn1 (racemic) [Example 70]", "experimental target": "ALP in normal human articular chondrocytes (NHACs)", "u": "µM", "qualifying sign": ">", "IC50": 30}

----------
- Tested on: ALP in normal human articular chondrocytes (NHACs)
- protocol summary: Alkaline Phosphatase (ALP) activity assay (staining and quantitation) in NHACs, prevention of chondrocyte hypertrophy
- Type: cell-based
- measurement context: Chondrocyte, 288 h, value in parentheses, human IL-1 beta 10 ng/mL, 12 days, read-out: ALP in NHAC (% Efficacy)
Decide using Emax alone. Strictly below 60%: rule met. Equal to or above 60%: rule not met.

{"compound": "CCOc1cc(C(F)(F)F)cc(NC(=O)[C@@H]2[C@@H](c3cn(C)nc3C(F)(F)F)[C@H]3O[C@@H]2C[C@@H]3O)n1 (racemic) [Example 39]", "experimental target": "ALP in normal human articular chondrocytes (NHACs)", "qualitative label": "rule not met"}
{"compound": "Cn1cc([C@H]2[C@H]3O[C@H](C[C@@H]3O)[C@@H]2C(=O)Nc2ccc(C(F)(F)F)c(Cl)c2)c(C(F)(F)F)n1 (racemic) [Example 58]", "experimental target": "ALP in normal human articular chondrocytes (NHACs)", "qualitative label": "rule not met"}
{"compound": "O=C(Nc1ccc(C(F)(F)F)c(Cl)n1)[C@@H]1[C@@H](c2cccc(C(F)(F)F)c2)[C@H]2O[C@@H]1C[C@@H]2O (racemic) [Example 25]", "experimental target": "ALP in normal human articular chondrocytes (NHACs)", "qualitative label": "rule not met"}
{"compound": "Cn1cc([C@H]2[C@H]3O[C@H](C[C@@H]3O)[C@@H]2C(=O)Nc2ccc(C(F)(F)F)cc2)c(C(F)(F)F)n1 (racemic) [Example 29]", "experimental target": "ALP in normal human articular chondrocytes (NHACs)", "qualitative label": "rule not met"}
{"compound": "Cn1cc([C@H]2[C@H]3O[C@H](C[C@@H]3O)[C@@H]2C(=O)Nc2cc(C(F)(F)F)cc(Cl)n2)c(C(F)(F)F)n1 (racemic) [Example 35]", "experimental target": "ALP in normal human articular chondrocytes (NHACs)", "qualitative label": "rule not met"}
{"compound": "Cn1cc([C@H]2[C@H]3O[C@H](C[C@@H]3O)[C@@H]2C(=O)Nc2cc(C(F)(F)F)ccc2F)c(C(F)(F)F)n1 (racemic) [Example 52]", "experimental target": "ALP in normal human articular chondrocytes (NHACs)", "qualitative label": "rule not met"}
{"compound": "Cn1nc(C(F)(F)F)cc1[C@H]1[C@H]2O[C@H](C[C@@H]2O)[C@@H]1C(=O)Nc1cc(C(F)(F)F)ccc1C#N (racemic) [Example 72]", "experimental target": "ALP in normal human articular chondrocytes (NHACs)", "qualitative label": "rule not met"}
{"compound": "Cn1cc([C@H]2[C@H]3O[C@H](C[C@@H]3O)[C@@H]2C(=O)Nc2ccc(Cl)c(C(F)(F)F)c2)c(C(F)(F)F)n1 (racemic) [Example 53]", "experimental target": "ALP in normal human articular chondrocytes (NHACs)", "qualitative label": "rule not met"}
{"compound": "Cn1cc([C@H]2[C@H]3O[C@H](C[C@@H]3O)[C@@H]2C(=O)Nc2ccc(N3CCOCC3)c(C(F)(F)F)c2)c(C(F)(F)F)n1 (racemic) [Example 37]", "experimental target": "ALP in normal human articular chondrocytes (NHACs)", "qualitative label": "rule met"}
{"compound": "Cn1nc(C(F)(F)F)cc1[C@H]1[C@H]2O[C@H](C[C@@H]2O)[C@@H]1C(=O)Nc1cc(C(F)(F)F)ccc1F (racemic) [Example 75]", "experimental target": "ALP in normal human articular chondrocytes (NHACs)", "qualitative label": "rule met"}
{"compound": "Cc1cc(C(F)(F)F)cc(NC(=O)[C@@H]2[C@@H](c3cccc(C(F)(F)F)c3)[C@H]3O[C@@H]2C[C@@H]3O)n1 (racemic) [Example 8]", "experimental target": "ALP in normal human articular chondrocytes (NHACs)", "qualitative label": "rule not met"}
{"compound": "Cc1c(NC(=O)[C@@H]2[C@@H](c3cccc(C(F)(F)F)c3)[C@H]3O[C@@H]2C[C@@H]3O)cccc1C(F)(F)F (racemic) [Example 11]", "experimental target": "ALP in normal human articular chondrocytes (NHACs)", "qualitative label": "rule met"}
{"compound": "CC(C)n1cc([C@H]2[C@H]3O[C@H](C[C@@H]3O)[C@@H]2C(=O)Nc2cc(C(F)(F)F)ccc2F)c(C(F)(F)F)n1 (racemic) [Example 85]", "experimental target": "ALP in normal human articular chondrocytes (NHACs)", "qualitative label": "rule met"}
{"compound": "Cn1cc([C@H]2[C@H]3O[C@H](C[C@@H]3O)[C@@H]2C(=O)Nc2cccc(C(F)(F)F)c2)c(C(F)(F)F)n1 (racemic) [Example 32]", "experimental target": "ALP in normal human articular chondrocytes (NHACs)", "qualitative label": "rule not met"}
{"compound": "O=C(Nc1cc(C(F)(F)F)cc(C2CC2)n1)[C@@H]1[C@@H](c2cccc(C(F)(F)F)c2)[C@H]2O[C@@H]1C[C@@H]2O (racemic) [Example 7]", "experimental target": "ALP in normal human articular chondrocytes (NHACs)", "qualitative label": "rule met"}
{"compound": "O=C(Nc1ccc(C(F)(F)F)c(Cl)c1)[C@@H]1[C@@H](c2cccc(C(F)(F)F)c2)[C@H]2O[C@@H]1C[C@@H]2O (racemic) [Example 2]", "experimental target": "ALP in normal human articular chondrocytes (NHACs)", "qualitative label": "rule not met"}
{"compound": "O=C(Nc1ccc(F)c(C(F)(F)F)c1)[C@@H]1[C@@H](c2cccc(C(F)(F)F)c2)[C@H]2O[C@@H]1C[C@@H]2O (racemic) [Example 16]", "experimental target": "ALP in normal human articular chondrocytes (NHACs)", "qualitative label": "rule not met"}
{"compound": "Cc1ccc(C(F)(F)F)cc1NC(=O)[C@@H]1[C@@H](c2cn(C)nc2C(F)(F)F)[C@H]2O[C@@H]1C[C@@H]2O (racemic) [Example 54]", "experimental target": "ALP in normal human articular chondrocytes (NHACs)", "qualitative label": "rule met"}
